Overview of recorded inhibition for various compounds
# system_tested: Leukocyte tyrosine kinase receptor (Homo sapiens) (UniProt P29376)
# Sequence (P29376 whole entry): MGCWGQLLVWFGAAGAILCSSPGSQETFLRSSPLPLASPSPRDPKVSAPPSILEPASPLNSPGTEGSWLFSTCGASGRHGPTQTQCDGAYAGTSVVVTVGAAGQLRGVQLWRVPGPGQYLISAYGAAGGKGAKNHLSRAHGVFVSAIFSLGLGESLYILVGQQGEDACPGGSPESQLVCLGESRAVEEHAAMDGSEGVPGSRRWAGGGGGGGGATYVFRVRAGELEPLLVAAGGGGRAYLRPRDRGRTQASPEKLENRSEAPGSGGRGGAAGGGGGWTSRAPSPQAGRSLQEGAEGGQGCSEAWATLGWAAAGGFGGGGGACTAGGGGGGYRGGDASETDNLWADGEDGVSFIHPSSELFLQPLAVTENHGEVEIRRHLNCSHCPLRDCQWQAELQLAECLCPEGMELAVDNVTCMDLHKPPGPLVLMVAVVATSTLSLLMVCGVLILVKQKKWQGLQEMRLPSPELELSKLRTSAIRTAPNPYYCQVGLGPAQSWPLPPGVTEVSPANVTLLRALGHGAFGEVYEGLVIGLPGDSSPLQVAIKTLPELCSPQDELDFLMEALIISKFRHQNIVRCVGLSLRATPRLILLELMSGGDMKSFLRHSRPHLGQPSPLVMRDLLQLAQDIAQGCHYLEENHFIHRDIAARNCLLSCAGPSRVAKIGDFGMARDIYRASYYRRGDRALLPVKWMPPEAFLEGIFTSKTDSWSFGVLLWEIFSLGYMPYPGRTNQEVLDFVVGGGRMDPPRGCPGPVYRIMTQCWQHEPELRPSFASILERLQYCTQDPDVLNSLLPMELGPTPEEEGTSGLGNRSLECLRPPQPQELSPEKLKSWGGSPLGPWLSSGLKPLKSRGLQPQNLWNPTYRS
# condition_info: at 0.1 µM
# Description: GSK_PKIS: LTK mean inhibition at 0.1 uM [Nanosyn]
Output spec: scalar in %, unitless text.

Please review the entries below; each comes with its answer.
{"chemical_structure": "N#Cc1ccc(Oc2nccc(-c3c(-c4ccc(F)cc4)ncn3C3CCNCC3)n2)cc1", "inhibition (%)": 4.74}
{"chemical_structure": "CCc1cccc(CC)c1/C=C/c1cncc(C(=O)NC)c1", "inhibition (%)": 1.51}
{"chemical_structure": "CCc1ccc(Oc2nccc(-c3c(-c4ccc(F)cc4)ncn3C3CCNCC3)n2)cc1", "inhibition (%)": 2.71}
{"chemical_structure": "C#Cc1cccc(Nc2ncnc3ccc(OCCCCNCCS(C)(=O)=O)cc23)c1", "inhibition (%)": 5.05}
{"chemical_structure": "COC(=O)Nc1nc2ccc(Sc3ccc(NC(=O)Nc4cc(C(F)(F)F)ccc4F)cc3)cc2[nH]1", "inhibition (%)": -0.1}
{"chemical_structure": "COc1cc2ncn(-c3cc(OCCc4ccccc4)c(C(N)=O)s3)c2cc1OC", "inhibition (%)": 1.89}
{"chemical_structure": "CCN(CC)Cc1ccc(Nc2nccc(-c3cnn4ncccc34)n2)cc1", "inhibition (%)": 4.48}
{"chemical_structure": "CS(=O)(=O)CCNCc1cc(-c2cc3c(Nc4ccc(OCc5cccc(F)c5)c(Cl)c4)ncnc3s2)cs1", "inhibition (%)": 6.05}
{"chemical_structure": "O=C(Nc1n[nH]c2cc(-c3ccccc3)ccc12)C1CC1", "inhibition (%)": 3.88}

Continue with the next compound.
Q: Please indicate recorded inhibition of COc1cc(Nc2ncc3c(C)nc(-c4cccc(Oc5ccccc5)c4)n3n2)cc(OC)c1OC measured with Leukocyte tyrosine kinase receptor (Homo sapiens) (UniProt P29376).
A: 3.21

====

# system_tested: Tyrosine-protein kinase ABL1 (Homo sapiens)
# condition_info: at 0.1 µM
# Description: GSK_PKIS: ABL1 mean inhibition at 0.1 uM [Nanosyn]
property_name: inhibition (%)
Dear colleague, please return just the value in %, with no unit written.

Some solved cases for reference:
{"chemical_structure": "Cc1ccc(NC(=O)c2ccoc2)cc1-c1ccc(C(=O)NCC2CC2)cc1", "inhibition / %": 1.09}
{"chemical_structure": "O=C(Nc1ccc(Oc2ccc3[nH]c(NC(=O)c4ccccc4)nc3c2)cc1)Nc1cc(C(F)(F)F)ccc1F", "inhibition / %": 16.2}
{"chemical_structure": "CCS(=O)(=O)c1ccc(OC)c(Nc2ncc(-c3ccccc3Cl)o2)c1", "inhibition / %": 2.99}
{"chemical_structure": "NC(=O)c1ccc(Oc2nccc(-c3c(-c4ccc(F)cc4)ncn3C3CCNCC3)n2)cc1", "inhibition / %": 4.17}
{"chemical_structure": "FC(F)(F)c1cccc(Nc2nccc(-c3cnn4nc(-c5ccccc5)ccc34)n2)c1", "inhibition / %": -0.03}
{"chemical_structure": "CN(c1ccc(NC(=O)Nc2c(Cl)cccc2Cl)cc1)c1ccnc(Nc2cccc(CS(C)(=O)=O)c2)n1", "inhibition / %": 16.9}

Q: Let me know recorded inhibition for COc1cc(Nc2ncc3c(C)nc(-c4cccc(Oc5ccccc5)c4)n3n2)cc(OC)c1OC , thanks.
A: 2.33

Q: Tell me inhibition reported for CS(=O)(=O)CCNCc1cc(-c2cc3c(Nc4ccc(OCc5cccc(F)c5)c(Cl)c4)ncnc3s2)cs1
A: 3.45

Q: Quick one: give measured inhibition for C/C(Nc1ccc(S(N)(=O)=O)cc1)=C1/C(=O)Nc2ccccc21
A: 1.79
